Experimental System: T1, CD79b endogenously expressed on the cell surface (malignant B cell lines, normal B cells in PBMC, CLL … (human, UniProt P40259 29-229))
T1 construct: whole, on cells; On cells CD79b stands in the B-cell receptor complex with CD79a and surface Ig; also called cell surface CD79b; endogenous CD79b
T1 sequence (looked up): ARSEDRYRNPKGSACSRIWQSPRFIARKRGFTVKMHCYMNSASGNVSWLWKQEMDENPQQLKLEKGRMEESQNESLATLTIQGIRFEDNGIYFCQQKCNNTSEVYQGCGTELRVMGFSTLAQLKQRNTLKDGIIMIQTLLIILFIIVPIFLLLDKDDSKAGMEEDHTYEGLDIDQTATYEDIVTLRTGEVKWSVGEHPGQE
Experimental Details: flow cytometry on BJAB cells; anti-human IgG1-PE; MFI (PE); table under the graph
Reported Metric: pEC50
In simple prose, pEC50 is minus the logarithm base ten of a concentration in moles per litre.

Worked examples, 5 binders total:
ch57B9 (antibody, human IgG1, kappa, V domains shown, Rabbit/human chimeric IgG1 kappa; also called chimeric 57B9) VH: QSVRETGGGLVQPGGSLTLSCEASEFTINIDYWISWVRQAPGKGLEWIGIIDPGDGTTYFAIWVSGRFTITRNTNLNTVDLKMTSLTEADTATYFCAREVSASAYQYDLWGPGTLVTVSS VL: ALVMTQTPSSVSADVGGTVSINCQASEDIESYLAWYQQKPGQPPKLLIYFTSNLASGVPSRFKGSGSGTEYTLTISGVQPDDAATYYCQQGYRNSDVHNPFGGGTEVVVKR
9.04
ch44G2 (antibody, human IgG1, kappa, V domains shown, Rabbit/human chimeric IgG1 kappa; also called chimeric 44G2) VH: QSVRETGGGLVQPGGSLKLSCKASGFTINIDYWISWVRQAPGKGLEWIGIIDPGDGTTYFAIWVSGRFTISFDNTQNTVDLQMNSLTAADTATYFCVREFSASAYQYDLWGPGTLVTVSS VL: DLVMTQTPSSVSAAVGGTVSINCRASEDIENYLAWYQQKPGQPPKLLIYRASTLSSGVSSRFSGSGSGTEFTLTISGVQPDDAATYYCQQGYRNSNVDNPFGGGTEMVVKR
9.17
ch22D10 (antibody, human IgG1, kappa, V domains shown, Rabbit/human chimeric IgG1 kappa; also called chimeric 22D10) VH: QSVEESGGRLVTPGTPLTLTCTASGFTINDYHMNWVRQAPGKGLEWIGIISSNGDTYYASWAKGRFTISRTSTTVDLKMTSLTTEDTATYFCARDDRDRSYAFDPWGPGTLVTVSS VL: ALVMTQTPSSVSAAVGGTVTINCRASEDIERYLAWYQQKPGQRPKLLIYGASTLASGVPSRFKGSGSGTEYTLTISGVQPDDAATYYCHQGDSSRNVVNVFGGGTEVVVKR
9.47
ch23D8 (antibody, human IgG1, kappa, V domains shown, Rabbit/human chimeric IgG1 kappa; also called chimeric 23D8) VH: QSLEESGGGLVTPGGTLTLTCTVSGLSLSSNAINWVRQAPGKGLEWIGMIYSGGRIEYASWAKGRFTISKTSTTVDLKITSPTTEDTATYFCAKGMSPSAHSSDIWGPGTLVTVSA VL: AYDMTQTPASVEVAVGGTVTIKCQASQSISDNLSWYQQKPGQPPKLLIYDASDLASGVPSRFSGSGSGTEFTLTISDLEPADAATYYCQQDWISSNVDNTFGGGTEVVVKR
8.97
polatuzumab (antibody, V domains shown) VH: EVQLVESGGGLVQPGGSLRLSCAASGYTFSSYWIEWVRQAPGKGLEWIGEILPGGGDTNYNEIFKGRATFSADTSKNTAYLQMNSLRAEDTAVYYCTRRVPIRLDYWGQGTLVTVSS VL: DIQLTQSPSSLSASVGDRVTITCKASQSVDYEGDSFLNWYQQKPGKAPKLLIYAASNLESGVPSRFSGSGSGTDFTLTISSLQPEDFATYYCQQSNEDPLTFGQGTKVEIKR
8.90

// next item, pEC50 requested
Reported pEC50 of ch48H10 (antibody, human IgG1, kappa, V domains shown, Rabbit/human chimeric IgG1 kappa; also called chimeric 48H10) VH: QSVKETGGGLVQPGGSLTLSCKASGFTINIDYWISWVRQAPGKGLEWIGIIDPGDGTTYFAIWVSGRFTISTDNAQNTVDLQMNSLTAADTATYFCAREFSASAYQYDLWGPGTLVTVSS VL: ALVMTQTPSSVSAAVGGTVSINCQASEDIESYLTWYQQKPGQPPKLLMYRASTLSSGVSSRFSASGSGTEFTLTISGVQPDDAATYYCQQGYRNKDVDNPFGGGTEVVVKR : 9.01
